Value source: patent US20230134571A1

- target.under.test: HIV Env, isolate X1632_S2_B10 (HIV)
- measurement.protocol: cell-based or functional assay
value.type: IC80 (µg/ml) with constrains (µg/mL)
Answers are plain numbers, in µg/mL.

Request: For PGDM1400 (antibody, V domains shown) VH: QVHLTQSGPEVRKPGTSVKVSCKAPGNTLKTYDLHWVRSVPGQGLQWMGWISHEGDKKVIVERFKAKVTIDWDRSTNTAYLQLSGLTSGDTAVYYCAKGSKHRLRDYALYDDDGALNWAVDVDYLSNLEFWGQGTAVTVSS VL: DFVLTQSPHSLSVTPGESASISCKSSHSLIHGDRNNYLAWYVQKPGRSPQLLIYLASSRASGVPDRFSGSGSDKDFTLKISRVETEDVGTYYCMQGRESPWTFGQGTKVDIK , what is its reported IC80 (µg/ml) with constrains?
Result: 0.135
